Just for reference, the kinase profiling compilation of Christmann-Franck et al. (2016) is where these values come from.

Target: MAP4K4 (human) (UniProt O95819)
Sequence (O95819 whole entry, looked up): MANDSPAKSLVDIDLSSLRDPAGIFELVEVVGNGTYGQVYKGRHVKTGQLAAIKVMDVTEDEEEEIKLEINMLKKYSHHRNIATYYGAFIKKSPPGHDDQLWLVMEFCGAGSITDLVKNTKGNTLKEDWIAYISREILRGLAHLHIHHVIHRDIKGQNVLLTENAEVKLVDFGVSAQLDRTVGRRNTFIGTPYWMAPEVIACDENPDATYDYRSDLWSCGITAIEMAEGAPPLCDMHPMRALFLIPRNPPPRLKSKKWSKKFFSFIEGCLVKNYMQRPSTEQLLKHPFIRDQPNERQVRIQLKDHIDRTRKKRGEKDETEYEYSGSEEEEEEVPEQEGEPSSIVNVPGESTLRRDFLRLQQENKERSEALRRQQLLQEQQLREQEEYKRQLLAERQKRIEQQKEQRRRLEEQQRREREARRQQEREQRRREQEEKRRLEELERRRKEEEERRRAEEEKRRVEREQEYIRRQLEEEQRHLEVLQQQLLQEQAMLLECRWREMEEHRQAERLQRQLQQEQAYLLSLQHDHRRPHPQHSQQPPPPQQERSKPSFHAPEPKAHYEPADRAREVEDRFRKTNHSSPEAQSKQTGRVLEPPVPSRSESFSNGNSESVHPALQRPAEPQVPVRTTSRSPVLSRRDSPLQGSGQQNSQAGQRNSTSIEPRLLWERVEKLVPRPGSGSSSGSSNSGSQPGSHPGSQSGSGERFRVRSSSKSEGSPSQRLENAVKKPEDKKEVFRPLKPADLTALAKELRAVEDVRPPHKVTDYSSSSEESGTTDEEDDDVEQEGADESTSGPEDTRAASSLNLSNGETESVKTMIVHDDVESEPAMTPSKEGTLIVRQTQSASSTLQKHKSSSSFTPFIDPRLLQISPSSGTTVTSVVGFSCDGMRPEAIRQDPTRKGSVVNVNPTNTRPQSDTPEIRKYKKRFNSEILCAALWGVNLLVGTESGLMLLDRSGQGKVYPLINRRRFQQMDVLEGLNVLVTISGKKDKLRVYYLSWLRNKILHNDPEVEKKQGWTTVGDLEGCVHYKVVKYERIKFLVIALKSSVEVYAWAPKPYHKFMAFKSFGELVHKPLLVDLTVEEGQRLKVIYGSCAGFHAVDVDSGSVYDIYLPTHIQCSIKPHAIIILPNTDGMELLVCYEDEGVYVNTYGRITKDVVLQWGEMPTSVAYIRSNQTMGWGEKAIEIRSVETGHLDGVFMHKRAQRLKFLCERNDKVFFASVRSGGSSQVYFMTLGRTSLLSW
Experiment: radiometric filter-binding kinase assay, Kinase HotSpot
Settings: compound 0.5 µM; ATP 10 µM
MEASURED_METRIC: residual activity

Consider the worked cases shown below.
Nc1nnc2[nH]c3ccccc3nc1-2 ... 76.2%
Cn1cnc2cc3c(Nc4cccc(Br)c4)ncnc3cc21 ... 52.1%
COc1cc2ncc(-c3ccccc3)nc2cc1OC ... 62.1%

State the recorded residual activity for every item in the following list.
1. COc1cc2ncnc(N3CCN(C(=O)Nc4ccc(Oc5ccccc5)cc4)CC3)c2cc1OC
2. CC(C)c1nn(-c2c(Cl)cccc2Cl)c2nc(Cc3ccc(OCCO)cc3)nc(O)c12
3. O=C(Nc1cccc(Nc2cc(Nc3cccc(C(F)(F)F)c3)ncn2)c1)C1CC1
4. COc1ccc(CNC(=O)Nc2ncc([N+](=O)[O-])s2)cc1
5. O=C1NC(=O)C(c2cn(CCCO)c3ncccc23)=C1c1cnccn1
6. O=C1Nc2ccccc2/C1=C1\Nc2ccccc2\C1=N/O
7. O=C(O)/C=C/c1cc(Br)c(Br)c(Br)c1Br
8. CCn1cnc2c(Nc3cccc(Cl)c3)nc(N[C@@H]3CCCC[C@@H]3N)nc21

Solution:
88.4%
84.5%
102%
98.8%
36.4%
42%
63.5%
72.5%

Count: 3. Required value per item: residual activity.
1. COc1ccc(OC)c2c(=S)c3ccccc3[nH]c12
2. CC(=O)O/N=C1\C(=C2\C(=O)Nc3cc(Br)ccc32)Nc2ccccc21
3. O=C1Nc2ccccc2/C1=C1/Nc2ccccc2/C1=N\OCCC(O)CO (configuration not stated)

Solution:
1: 101%; 2: 30.2%; 3: 11.6%

Could you report residual activity for every entry in the following list?
1. CN([C@@H](Cc1ccc(OS(=O)(=O)c2cccc3cnccc23)cc1)C(=O)N1CCN(c2ccccc2)CC1)S(=O)(=O)c1cccc2cnccc12
2. Cc1nc2cc3nc(-c4cccs4)cnc3cc2n1C

Solution:
["94.8%", "84.5%"]

For each of the compounds below, state residual activity.
1. Cn1sc(=O)n(Cc2ccccc2)c1=O
2. CN(C)C[C@H]1CCn2c(c(C3=C(c4cn(C)c5ccccc45)C(=O)NC3=O)c3ccccc32)C1
3. Nc1nccc(-c2c(-c3ccc(F)cc3)ncn2C2CCNCC2)n1
4. Cn1nc2c3c(cccc31)C(=O)c1ccccc1-2
5. CC(C)[C@H](CO)Nc1nc(Nc2cc(N)cc(Cl)c2)c2ncn(C(C)C)c2n1

Solution:
1: 97%; 2: 82.5%; 3: 76.3%; 4: 85.1%; 5: 86.1%

Exercise: What value of measured residual activity is listed for `Oc1ccc(Nc2nc(-c3ccc(Cl)cc3)cs2)cc1` ?
Solution: 88.9%

* * *

Molecular target: RPS6KA5 KD2 (human) (UniProt O75582)
Sequence (O75582 whole entry, looked up): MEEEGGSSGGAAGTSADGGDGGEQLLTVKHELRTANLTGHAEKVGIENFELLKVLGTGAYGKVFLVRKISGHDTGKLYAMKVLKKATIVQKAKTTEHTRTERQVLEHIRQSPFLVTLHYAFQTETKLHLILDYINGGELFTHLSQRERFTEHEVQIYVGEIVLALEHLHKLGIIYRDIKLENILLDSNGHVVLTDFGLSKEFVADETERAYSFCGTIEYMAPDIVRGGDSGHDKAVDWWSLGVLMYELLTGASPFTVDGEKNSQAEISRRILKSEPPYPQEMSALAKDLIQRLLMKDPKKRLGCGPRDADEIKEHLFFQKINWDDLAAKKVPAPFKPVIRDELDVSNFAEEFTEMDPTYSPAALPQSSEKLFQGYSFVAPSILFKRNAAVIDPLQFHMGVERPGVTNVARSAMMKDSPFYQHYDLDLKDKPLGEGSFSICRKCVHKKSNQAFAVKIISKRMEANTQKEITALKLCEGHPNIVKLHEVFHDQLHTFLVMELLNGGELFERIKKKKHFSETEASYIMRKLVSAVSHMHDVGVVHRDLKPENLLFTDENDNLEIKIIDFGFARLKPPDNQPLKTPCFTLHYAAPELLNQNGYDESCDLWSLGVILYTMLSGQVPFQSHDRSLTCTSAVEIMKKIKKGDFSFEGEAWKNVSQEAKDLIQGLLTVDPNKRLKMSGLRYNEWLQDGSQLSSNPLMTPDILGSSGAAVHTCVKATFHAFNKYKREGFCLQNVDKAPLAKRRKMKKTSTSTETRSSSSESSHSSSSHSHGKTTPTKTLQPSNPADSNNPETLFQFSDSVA
Assay: radiometric filter-binding kinase assay, Kinase HotSpot
Conditions: compound 0.5 µM; ATP 10 µM
MEASURED_METRIC: residual activity (%)
One number for each entry, in %.

Worked examples follow.
O=C1NC(=O)C(c2c[nH]c3ccccc23)=C1c1c[nH]c2ccccc12 ... 62
CC(=O)O/N=C1\C(=C2\C(=O)Nc3cc(Br)ccc32)Nc2ccccc21 ... 83.9
Cc1nc2cc3nc(-c4cccs4)cnc3cc2n1C ... 109
CN([C@@H](Cc1ccc(OS(=O)(=O)c2cccc3cnccc23)cc1)C(=O)N1CCN(c2ccccc2)CC1)S(=O)(=O)c1cccc2cnccc12 ... 100
O=C1Cc2c([nH]c3ccc(Br)cc23)-c2ccccc2N1 ... 99.6

For every item below, please supply its residual activity.
1. COc1ccc(OC)c2c(=S)c3ccccc3[nH]c12
2. Cn1cnc2cc3c(Nc4cccc(Br)c4)ncnc3cc21
3. COc1ccc(CNC(=O)Nc2ncc([N+](=O)[O-])s2)cc1
4. Nc1nccc(-c2c(-c3ccc(F)cc3)ncn2C2CCNCC2)n1
5. O=C(Nc1cccc(Nc2cc(Nc3cccc(C(F)(F)F)c3)ncn2)c1)C1CC1

Solution:
[86, 93.5, 99.5, 97.9, 103]

Exercise: Find the recorded residual activity belonging to `O=C(CCCc1ccc(-c2ccccc2F)cc1)Nc1ccc(O)cc1` and report it.
Solution: 95.2

* * *

For each record, write down the corresponding residual activity.
Molecular target: PKN2 (human)
Experiment: radiometric filter-binding kinase assay, Kinase HotSpot
Details: compound 0.5 µM; ATP 10 µM
Numbers only, in %.

Solved cases below.
COc1ccc(CNC(=O)Nc2ncc([N+](=O)[O-])s2)cc1 ... 101
CCN(CC)CCCCN1c2ccccc2Oc2ccc(Cl)cc21 ... 72.4
O=C1Cc2c([nH]c3ccc(Br)cc23)-c2ccccc2N1 ... 96.8
CC(=O)O/N=C1\C(=C2\C(=O)Nc3cc(Br)ccc32)Nc2ccccc21 ... 85.4

# batch size: 3; output residual activity per entry
1. Nc1nnc2[nH]c3ccccc3nc1-2
2. O=C(O)/C=C/c1cc(Br)c(Br)c(Br)c1Br
3. CC(C)c1nn(-c2c(Cl)cccc2Cl)c2nc(Cc3ccc(OCCO)cc3)nc(O)c12

Solution:
1. 98.7
2. 95.6
3. 97.5

* * *

Molecular target: PRKCG (human) (UniProt P05129)
Assay: radiometric filter-binding kinase assay, Kinase HotSpot
Details: compound 0.5 µM; ATP 10 µM
MEASURED_METRIC: residual activity (%)
Give bare numbers, in %.

CCN(CC)CCCCN1c2ccccc2Oc2ccc(Cl)cc21 ... 91.1
O=C1NC(=O)C(c2c[nH]c3ccccc23)=C1c1c[nH]c2ccccc12 ... 91.4
O=C(Nc1cccc(Nc2cc(Nc3cccc(C(F)(F)F)c3)ncn2)c1)C1CC1 ... 102
O=C(CCCc1ccc(-c2ccccc2F)cc1)Nc1ccc(O)cc1 ... 98
O=C1NC(=O)/C(=C\c2ccc3nccnc3c2)S1 ... 105

Hey, quick one: what's residual activity for each of these?
1. O=C(O)/C=C/c1cc(Br)c(Br)c(Br)c1Br
2. Cn1sc(=O)n(Cc2ccccc2)c1=O
3. O=C1NC(=O)C(c2cn(CCCO)c3ncccc23)=C1c1cnccn1
4. COc1ccc(OC)c2c(=S)c3ccccc3[nH]c12
5. Nc1nccc(-c2c(-c3ccc(F)cc3)ncn2C2CCNCC2)n1
6. Cn1cnc2cc3c(Nc4cccc(Br)c4)ncnc3cc21
7. CN(C)C[C@H]1CCn2c(c(C3=C(c4cn(C)c5ccccc45)C(=O)NC3=O)c3ccccc32)C1
8. CN([C@@H](Cc1ccc(OS(=O)(=O)c2cccc3cnccc23)cc1)C(=O)N1CCN(c2ccccc2)CC1)S(=O)(=O)c1cccc2cnccc12

Solution:
1. 89.4
2. 86.6
3. 93.1
4. 77.6
5. 87.8
6. 93.9
7. 6.93
8. 95.4

Please state residual activity for every compound in the list that follows.
1. CC(C)[C@H](CO)Nc1nc(Nc2cc(N)cc(Cl)c2)c2ncn(C(C)C)c2n1
2. COc1cc2ncnc(N3CCN(C(=O)Nc4ccc(Oc5ccccc5)cc4)CC3)c2cc1OC
3. CCn1cnc2c(Nc3cccc(Cl)c3)nc(N[C@@H]3CCCC[C@@H]3N)nc21

Solution:
107
104
95

Below are 6 compounds. Give each one its residual activity.
1. CC(C)c1nn(-c2c(Cl)cccc2Cl)c2nc(Cc3ccc(OCCO)cc3)nc(O)c12
2. O=C1Nc2ccccc2/C1=C1\Nc2ccccc2\C1=N/O
3. CC(=O)O/N=C1\C(=C2\C(=O)Nc3cc(Br)ccc32)Nc2ccccc21
4. Cn1nc2c3c(cccc31)C(=O)c1ccccc1-2
5. COc1cc2ncc(-c3ccccc3)nc2cc1OC
6. COc1ccc(CNC(=O)Nc2ncc([N+](=O)[O-])s2)cc1

Solution:
81.1
96.7
103
90.6
101
99.8

* * *

Target: CDK3 CCNE1 (human) (UniProt Q00526+P24864)
Sequence (P24864 whole entry, looked up): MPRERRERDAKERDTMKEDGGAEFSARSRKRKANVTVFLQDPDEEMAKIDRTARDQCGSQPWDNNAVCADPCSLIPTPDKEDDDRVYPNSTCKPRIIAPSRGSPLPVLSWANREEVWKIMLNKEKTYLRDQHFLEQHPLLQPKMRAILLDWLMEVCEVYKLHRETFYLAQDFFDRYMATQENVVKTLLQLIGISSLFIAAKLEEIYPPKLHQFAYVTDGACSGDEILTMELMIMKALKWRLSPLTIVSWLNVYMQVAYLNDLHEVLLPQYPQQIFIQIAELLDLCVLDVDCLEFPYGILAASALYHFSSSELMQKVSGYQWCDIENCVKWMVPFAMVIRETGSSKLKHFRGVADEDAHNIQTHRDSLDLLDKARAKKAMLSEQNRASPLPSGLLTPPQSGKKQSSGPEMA
Sequence (Q00526 whole entry, looked up): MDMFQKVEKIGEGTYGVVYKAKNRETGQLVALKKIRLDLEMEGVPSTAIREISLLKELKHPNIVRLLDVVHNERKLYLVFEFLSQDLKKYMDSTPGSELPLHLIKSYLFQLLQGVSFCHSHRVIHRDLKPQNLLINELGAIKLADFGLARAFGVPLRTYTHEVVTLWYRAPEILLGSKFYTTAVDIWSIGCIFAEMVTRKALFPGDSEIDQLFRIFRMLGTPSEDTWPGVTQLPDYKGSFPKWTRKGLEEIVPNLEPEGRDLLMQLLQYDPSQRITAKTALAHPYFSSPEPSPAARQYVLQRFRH
Assay: radiometric filter-binding kinase assay, Kinase HotSpot
Details: compound 0.5 µM; ATP 10 µM
MEASURED_METRIC: residual activity (%)
Give bare numbers, in %.

Previously resolved entries follow.
O=C(CCCc1ccc(-c2ccccc2F)cc1)Nc1ccc(O)cc1 ... 92.6
Cc1nc2cc3nc(-c4cccs4)cnc3cc2n1C ... 93.6
O=C1c2ccccc2-[n+]2ccc3c([nH]c4ccccc43)c21 ... 80.1
COc1ccc(CNC(=O)Nc2ncc([N+](=O)[O-])s2)cc1 ... 94.8
CC(=O)O/N=C1\C(=C2\C(=O)Nc3cc(Br)ccc32)Nc2ccccc21 ... 36.3
Cn1sc(=O)n(Cc2ccccc2)c1=O ... 78.1
O=C1Cc2c([nH]c3ccc(Br)cc23)-c2ccccc2N1 ... 81.7
Oc1ccc(Nc2nc(-c3ccc(Cl)cc3)cs2)cc1 ... 99

Give residual activity for each listed item.
1. c1cc(-c2cnn3cc(-c4ccc(OCCN5CCCCC5)cc4)cnc23)ccn1
2. Cn1cnc2cc3c(Nc4cccc(Br)c4)ncnc3cc21
3. Cc1ccc(NC(=O)c2ccc(CN3CCN(C)CC3)cc2)cc1Nc1nccc(-c2cccnc2)n1
4. O=C1NC(=O)/C(=C\c2ccc3nccnc3c2)S1
5. Cn1nc2c3c(cccc31)C(=O)c1ccccc1-2
6. CCn1cnc2c(Nc3cccc(Cl)c3)nc(N[C@@H]3CCCC[C@@H]3N)nc21

Solution:
[89.9, 92.5, 97.5, 91.7, 87.5, 49.7]

Please look at the items below and tell me residual activity for each one, in order.
1. O=C1Nc2ccccc2/C1=C1\Nc2ccccc2\C1=N/O
2. O=C1Nc2ccccc2/C1=C1/Nc2ccccc2/C1=N\OCCC(O)CO (stereo not given)
3. CCN(CC)CCCCN1c2ccccc2Oc2ccc(Cl)cc21
4. Nc1nnc2[nH]c3ccccc3nc1-2
5. CN(C)C[C@H]1CCn2c(c(C3=C(c4cn(C)c5ccccc45)C(=O)NC3=O)c3ccccc32)C1
6. COc1ccc(OC)c2c(=S)c3ccccc3[nH]c12

Solution:
1. 52.3
2. 65.2
3. 90.3
4. 93.1
5. 62.4
6. 87.7

Please state, for each entry, its recorded residual activity.
1. CN([C@@H](Cc1ccc(OS(=O)(=O)c2cccc3cnccc23)cc1)C(=O)N1CCN(c2ccccc2)CC1)S(=O)(=O)c1cccc2cnccc12
2. COc1cc2ncc(-c3ccccc3)nc2cc1OC
3. O=C1NC(=O)C(c2c[nH]c3ccccc23)=C1c1c[nH]c2ccccc12
4. CC(C)c1nn(-c2c(Cl)cccc2Cl)c2nc(Cc3ccc(OCCO)cc3)nc(O)c12

Solution:
1: 101; 2: 83.8; 3: 91.5; 4: 6.14
